Where do the numbers come from? From PubChem BioAssay.

// reported z-score for each item listed
Assay: splicing luciferase reporter signal modulators, primary screen, spliceosome inhibition project, cell-based, HEK293, splice +/- reporter (AID 1101);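 note: HEK293 cells carrying a splicing-competent luciferase reporter gene; test concentration not given here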
Settings: luminescence, 24 h, higher = more signal, called active from +8 up or from −8 down
API doc: respond with a numeric literal and nothing else, no unit.

Recorded results for 3 molecules are shown here.
>  <molecule>
C=C(CCCC)/C(=C/C[C@H](OC(=O)c1ccncc1)c1cccc(OCCO)c1)c1cc(C(=O)OC)ccc1OC

>  <z-score>
-1.37

$$$$
>  <molecule>
C=C(C)[C@@H]1CC=C(C(O)C2C=CC3C(=O)NC(=O)C3N2Nc2ccccn2)CC1 (some centres undefined)

>  <z-score>
1.1

$$$$
>  <molecule>
C#CCNC(/C=C/c1ccccc1)CO (centres undefined)

>  <z-score>
0.00978

$$$$

Query: Given "CO[C@H]1COC(=O)[C@H](C)COC(=O)[C@H](Cc2ccccc2)NC(=O)CC=C[C@H]1C" , state its recorded z-score.
Reply: -0.857

* * *

Assay: inhibitors of hydroxyurea-induced Chk1 phosphorylation, primary screen, imaging, HeLa, phospho-Chk1 nuclear intensity (AID 1187); note: test concentration not given here
Conditions: hydroxyurea-induced phospho-Chk1 immunofluorescence imaging, higher = more signal
Label rule not met if z-score falls below 0.1; label rule met in every other case.

// known answers, use as guide
>  <molecule>
CCCC[C@@H]1C[C@H]1[C@@H](NC(=O)c1cccs1)c1ccc(Cl)cc1

>  <assigned.label>
rule met

$$$$
>  <molecule>
C=C(COC)C(=O)CC[C@H](OC(=O)c1ccccc1-c1ccccc1C(=O)O)c1cccc(OCCO)c1

>  <assigned.label>
rule met

$$$$
>  <molecule>
[N-]=[N+]=NCc1ccccc1C[C@]1(C(N)=O)N=C(c2ccc(OCCCO)cc2)O[C@H]1c1ccccc1CN=[N+]=[N-]

>  <assigned.label>
rule not met

$$$$
>  <molecule>
CCCC=C(CCC)[C@@H](NS(=O)(=O)c1ccc(-c2ccccc2)cc1)c1ccc(C(=O)OC)cc1

>  <assigned.label>
rule not met

$$$$
>  <molecule>
O=[N+]([O-])c1ccc(C[n+]2ccc3ccc(O)cc3c2)o1

>  <assigned.label>
rule not met

$$$$
>  <molecule>
COCCOC(=O)N1C(=O)[C@@]2(c3cc(C#CCNC(N)=O)ccc31)[C@H](c1ccc(OCCO)cc1)N1[C@H](c3ccccc3)[C@H](c3ccccc3)OC(=O)[C@H]1[C@@H]2C(=O)Nc1nc2ccccc2s1

>  <assigned.label>
rule met

$$$$
>  <molecule>
O=C1c2ccccc2[C@](Cc2ccccc2I)(C(=O)NCC(F)(F)F)[C@H](c2ccc(CO)cc2)N1Cc1ccccc1C(F)(F)F

>  <assigned.label>
rule met

$$$$
>  <molecule>
CCCC[C@H]1OB(O)C[C@H]2C1=C(COC)C[C@H]1C(=O)N(Cc3ccccc3)C(=O)[C@H]12

>  <assigned.label>
rule not met

$$$$

Query: For this molecule, is measured z-score 0.1 or higher? C=CCC(OC(C)=O)[C@@H]1[C@@H](N(Cc2cccc3ccccc23)C(=O)c2ccc(C)cc2)c2cc(OCCCO)ccc2N1C(=O)c1ccc(-c2ccccc2)cc1 (stereo partly drawn)
Reply: rule not met

Query: What about this molecule? N#Cc1ccc(NN2C(C(O)c3ccc(I)cc3)C=CC3C(=O)N(c4ccccc4)C(=O)C32)cc1 (stereo not drawn)
Reply: rule met

Query: What about this molecule? "CCCC/C=C/[C@H]([C@@H](O)Cc1ccccc1)N(CC#Cc1ccccc1)Cc1ccccc1Br"
Reply: rule not met

Query: What about this molecule? "O=C(NCC(F)(F)F)[C@@H]1c2ccccc2C(=O)N(Cc2ccccc2Cl)[C@H]1c1ccc(CO)cc1"
Reply: rule met

Query: What about this molecule? CN1CCC(CCCO)=CC1C1CC1 (stereo not drawn)
Reply: rule not met
